assayName: NCI Yeast Anticancer Drug Screen. Data for the bub3 strain (AID 167)
experimentalSetup: S. cerevisiae bub3 mutant strain, at 50.0 µM, hits give high values
Compounds without any hit were thinned out: in the full panel of roughly 79,000, 15% have a hit.
measuredQuantity: growth inhibition (%)
All answers are understood in %, so give the number only.

INSERT INTO results (compound, val) VALUES
  ('Cc1cnc(N/N=C/c2c(CO)cnc(C)c2O)s1', 2.75),
  ('CC(=O)CC(C)(C)NNS(=O)(=O)c1ccc(C)cc1', 5.35),
  ('Nc1nc2c(C(=O)c3ccco3)nnn2c2cccc(Cl)c12', 8.95),
  ('C=CCC12CC(COc3ccccc3C(N)=O)OC1=Nc1ccccc1NC2=O (configuration not stated)', 0.8),
  ('CN(C)CC1CCCCCC(Br)C1O (configuration not stated)', -10.7),
  ('COc1ccc(C2(C(OC)OC)NC(=O)N(Cc3ccccc3)C2=O)cc1 (configuration not stated)', -11.8);

// switching to the query compound
For CC(=O)OCC1OC(n2c(Br)nc3c(N)ncnc32)C2OC(C)(C)OC12 (configuration not stated) , what is its reported growth inhibition?
1.3

Values from PubChem BioAssay (NCI)
